The reported measurements were obtained from PubChem BioAssay AID1159580.

# EXPERIMENT_NOTES: chemical genetic growth profiling, strain panel (AID 1159580);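 further: tested at 20 µM; growth read once vehicle control cultures reached saturation at 30 °C; lower values mean less growth of the strain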
# CONDITIONS_USED: S. cerevisiae deletion strains, growth OD, locus YGR135W, strain pre9
Among all 5,500 compounds or so, about 2,000 (36%) were called active. Another 18% or so got no clear call; they are omitted. No stated cut-off is given here; in the data, active means normalized growth mostly below about 0.91 (no sharp cut-off); inconclusive means no clear call, values can overlap the other calls; inactive means mostly above about 0.92. This is one part of the list.
Parameter call: string, one of active, inactive

Reference set (2 entries):
MOLECULE: C[n+]1cccc(C(=O)[O-])c1
CLASS_LABEL: inactive
--
MOLECULE: O=C(OC1Cc2c(O)cc(O)cc2OC1c1cc(O)c(O)c(O)c1-c1c(C2Oc3cc(O)cc(O)c3CC2OC(=O)c2cc(O)c(O)c(O)c2)cc(O)c(O)c1O)c1cc(O)c(O)c(O)c1 (configuration not stated)
CLASS_LABEL: inactive

Request: Tell me the recorded outcome of this test for Oc1ccc(Cl)c2cccnc12 .
Response: active

Request: Test call for this molecule, please: CC1(C)C(=O)C=C[C@@]2(C)C1=C(O)C(=O)[C@]1(C)C2CC[C@@]2(C)[C@H](c3ccoc3)C[C@H]3O[C@]321 (some centres not stated)
Response: active

Request: Hi, sorry to bother you, what did the test record for Oc1c(Cl)cc(Cl)c2cccnc12 ?
Response: active

Request: Each molecule tested received a call. Report the one for NCCNC(=O)c1ccc(Cl)cc1 .
Response: inactive

Request: Call for entry COC(=O)C[C@H]1C(C)(C)C(=O)[C@@H]2CC3=C4CC(=O)O[C@@H](c5ccoc5)[C@]4(C)CCC3[C@@]1(C)C2=O (some centres not stated) :
Response: inactive
